- System: Leishmania donovani
- test.protocol: Antileishmanial activity against Leishmania donovani axenic amastigotes at 2.5 uM after 72 hrs by Celltiter reagent based assay relative to control
- Format: functional
observed.property: inhibition at 2.5 µM

Answered cases to consult:
smiles.input: CCCC[C@H]1CN(CCCC[C@H]2CNC(=N)N2CCCCC2CCCCC2)C(=N)N1CCCCC1CCCCC1
endpoint.result: 71%
//
smiles.input: N=C1NC[C@H](CCCCN2C[C@H](CC3CCCCC3)N(CCCCC3CCCCC3)C2=N)N1CCCCC1CCCCC1
endpoint.result: 77%
//
smiles.input: CCCCCCCN1C(=N)N(CCCC[C@H]2CNC(=N)N2CCc2cccc(C(F)(F)F)c2)C[C@H]1Cc1ccc2ccccc2c1
endpoint.result: 37%
//
smiles.input: N=C1NC[C@H](CCCCN2C[C@H](CC3CCCCC3)N(CCc3ccc(-c4ccccc4)cc3)C2=N)N1CCc1cccc(C(F)(F)F)c1
endpoint.result: 35%
//
smiles.input: CCCC[C@H]1CN(CCCC[C@H]2CNC(=N)N2CCC23CC4CC(CC(C4)C2)C3)C(=N)N1CCc1ccc(-c2ccccc2)cc1
endpoint.result: 0%
//
smiles.input: CCCC[C@H]1CN(CCCC[C@H]2CNC(=N)N2CCC23CC4CC(CC(C4)C2)C3)C(=N)N1CCCCC1CCCCC1
endpoint.result: 11%

Now turn to the next compound.
Exercise: Return inhibition at 2.5 µM (reported value) for this compound: "CCCC[C@H]1CN(CCCC[C@H]2CNC(=N)N2CCc2cccc(C(F)(F)F)c2)C(=N)N1CCc1ccc(-c2ccccc2)cc1"
Solution: 47%

----------
- test.protocol: Selectivity index, ratio of IC50 for mouse J774 cells to IC50 for Leishmania donovani axenic amastigotes infected in mouse J774 cells
- Assay type: toxicity, cell-based
- condition.context: read-out: Ratio IC50
Respond with yes (1) for selectivity ratio values of 10 and above, no (0) for values below.

The following molecules have reported results that may help.
molecule: N=C1NC[C@H](CCCCN2C[C@H](CC3CCCCC3)N(CCCCC3CCCCC3)C2=N)N1CCc1cccc(C(F)(F)F)c1
assigned.label: yes (1)

molecule: CCCCCCCN1C(=N)N(CCCC[C@H]2CNC(=N)N2CCC23CC4CC(CC(C4)C2)C3)C[C@H]1Cc1ccc2ccccc2c1
assigned.label: yes (1)

molecule: CC1CCC(CCN2C(=N)NC[C@@H]2CCCCN2CCNC2=N)CC1 (stereo partly specified)
assigned.label: yes (1)

molecule: CCCCCCCN1CCN(CCCC[C@H]2CNC(=N)N2)C1=N
assigned.label: no (0)

molecule: CCCCCCCN1C(=N)N(CCCC[C@H]2CNC(=N)N2CCCCC2CCCCC2)C[C@H]1Cc1ccc2ccccc2c1
assigned.label: yes (1)

Exercise: Reported selectivity ratio reaches at least 10 for "CCCCCCCN1C(=N)N(CCCC[C@H]2CNC(=N)N2CCc2cccc(C(F)(F)F)c2)C[C@@H]1CC1CCCCC1" ?
Solution: no (0)

Exercise: Identify whether the reported selectivity ratio of the following molecule is 10 or greater: "N=C1NCCN1CCCC[C@H]1CNC(=N)N1CCCCC1CCCCC1"
Solution: no (0)

Exercise: Identify whether the reported selectivity ratio of the following molecule is 10 or greater: "N=C1NC[C@H](CCCCN2C[C@@H](Cc3ccc4ccccc4c3)N(CCc3ccc(-c4ccccc4)cc3)C2=N)N1CCCCC1CCCCC1"
Solution: no (0)

Exercise: Can "N=C1NC[C@H](CCCCN2C[C@@H](Cc3ccc4ccccc4c3)N(CCCCC3CCCCC3)C2=N)N1CCC12CC3CC(CC(C3)C1)C2" be said to have selectivity ratio at or above 10?
Solution: yes (1)

Exercise: Could you verify whether the entry "CCCCCCCN1C(=N)N(CCCC[C@H]2CNC(=N)N2CCc2cccc(C(F)(F)F)c2)C[C@@H]1CCCC" shows selectivity ratio of no less than 10?
Solution: yes (1)

Exercise: Is the recorded value of selectivity ratio equal to or greater than 10 for this molecule? "N=C1N[C@@H](CC2CCCCC2)CN1CCCC[C@H]1CNC(=N)N1CCCCC1CCCCC1"
Solution: yes (1)
